These measurements were taken from patent US6933318B1.

experiment: Wetting test of solvent systems on tanned rabbit pelt; format: physicochemical; conditions: about 1 mL solvent without active ingredient, dropwise, pelt at about 45°
experimental_readout: Ability to wet rabbit hair

Examples from the recorded data:
What value of Ability to wet rabbit hair has been reported for the following molecule? CCCCCCCC/C=C\CCCCCCCC(=O)OC [methyl oleate]
Wet Well

Request: CCCCCCCC(=O)O
Wet Well

Request: CN1CCCC1=O
Did Not Wet

Request: CC(O)CO (stereo not drawn)
Did Not Wet

Request: CCCCCCCCCCCC(=O)OC [methyl laurate]
Wet Well

---
What value of Ability to wet rabbit hair has been reported for the following molecule? CCCCCCCC/C=C\CCCCCCCC(=O)OCC [ethyl oleate]
Wet Well

Request: C=C(C)[C@H]1CC=C(C)CC1
Wet Well

Request: CCCCCCCCCCCCCC(=O)OC(C)C [isopropyl myristate]
Wet Well

Request: CCCCCCO
Wet Well

Request: CCCCCCCCCC(=O)OC [methyl caprate]
Wet Well

Request: CC(=O)OCC(COC(C)=O)OC(C)=O
Did Not Wet

Request: CCCCOC(=O)C(C)O (stereo not drawn) [butyl lactate]
Wet Well
